Numbers sourced from the supplement of paper PMC8387472.

Quick list: fraction of GFP+ cells per entry.
Test system: mESC LDLR-Dup GFP reporter (SpCas9 MH-deletion repair)
MEASUREMENT NOTES: fraction of GFP+ cells relative to DMSO control (fold change); higher = more MH-deletion repair to in-frame LDLR (or more editing)
MEASUREMENT CONTEXT: 2 µM; 7 days post-transfection

Q. // lookup fraction of GFP+ cells for NC[C@@](O)(c1ccc(Cl)cc1)c1ccc(-c2cn[nH]c2)cc1
A. 1.33

Q. // lookup fraction of GFP+ cells for COc1ccc(CC(=O)Nc2nc3c(s2)CCc2ccccc2-3)cc1OC
A. 1.51

Q. // lookup fraction of GFP+ cells for O=c1ccc2cc3ccoc3cc2o1 [Psoralen]
A. 1.11

Q. // lookup fraction of GFP+ cells for C[C@H](Oc1cc(-c2cnn(C3CCNCC3)c2)cnc1N)c1c(Cl)ccc(F)c1Cl [(S)-crizotinib]
A. 0.94

Q. // lookup fraction of GFP+ cells for N=C(NOCC(O)CN1CCCCC1)c1cccnc1 (stereo unspecified)
A. 0.805

Q. // lookup fraction of GFP+ cells for O=c1[nH]c(=O)n(C2CCCO2)cc1F (stereo unspecified)
A. 1.06

Q. // lookup fraction of GFP+ cells for Cc1ccc(CNc2ncnc3ccc(-c4ccc(CO)o4)cc23)o1
A. 1.08

Q. // lookup fraction of GFP+ cells for CC(C)c1cnn2c(NCc3ccccc3)cc(NCCCCCCN)nc12
A. 1.07

Q. // lookup fraction of GFP+ cells for O=c1oc2c(O)c(O)cc3c(=O)oc4c(O)c(O)cc1c4c23 [Ellagic acid]
A. 0.913

Q. // lookup fraction of GFP+ cells for O=C1NCCc2[nH]c(-c3ccncc3)cc21
A. 1.61

Q. // lookup fraction of GFP+ cells for NC(=O)c1ccc(I)c([N+](=O)[O-])c1 [Iniparib (BSI-201)]
A. 1.03

Q. // lookup fraction of GFP+ cells for O=c1[nH]c(=O)n([C@H]2C[C@H](O)[C@@H](CO)O2)cc1C(F)(F)F [Trifluridine]
A. 2.69

Q. // lookup fraction of GFP+ cells for Nc1nc(OCC2CCCCC2)c2[nH]cnc2n1
A. 0.88

Q. // lookup fraction of GFP+ cells for CC(C)(Oc1ccc(C(=O)c2ccc(Cl)cc2)cc1)C(=O)O [Fenofibric acid]
A. 2.08

Q. // lookup fraction of GFP+ cells for NC(=O)c1ncn([C@@H]2O[C@H](CO)[C@@H](O)[C@H]2O)c1O [Mizoribine]
A. 1.05

Q. // lookup fraction of GFP+ cells for CN(C)Cc1ccc(-c2nc3cccc4c3n2CCNC4=O)cc1
A. 0.517

Q. // lookup fraction of GFP+ cells for CCN1CCN(CC(=O)Nc2ccc(-c3cccc4c(=O)cc(N5CCOCC5)oc34)c3sc4ccccc4c23)CC1
A. 1.08

Q. // lookup fraction of GFP+ cells for COc1ccc(-c2oc3c(CC=C(C)C)c(O[C@@H]4O[C@H](CO)[C@@H](O)[C@H](O)[C@H]4O)cc(O)c3c(=O)c2O[C@@H]2O[C@@H](C)[C@H](O)[C@@H](O)[C@H]2O)cc1 [Icariin]
A. 1.26
